# assayed system: T1, DVL3, Q92997
# T1 sequence (Q92997 244-331, limits assumed, looked up): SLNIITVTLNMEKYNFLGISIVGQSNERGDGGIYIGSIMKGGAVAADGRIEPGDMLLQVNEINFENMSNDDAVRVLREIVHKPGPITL
# protocol summary: holdup assay
# Design: key: below the threshold = too weak to quantify, mostly under pKd 3.1 to 4
# experimental conditions: plain residues with an end cap or a label only (N-terminal biotin on a linker: ado-ado)
value type: pKd

// solved cases for pKd follow
[[record]]
binder = "MLPANYVEAI [NEB, P20929]"
value_type = "pKd"
data_value = "below the threshold"

[[record]]
binder = "PSVYSRSQYV [CLDN8, P56748]"
value_type = "pKd"
data_value = 3.63

[[record]]
binder = "EPAKETTTNV [SLC2A3, P11169]"
value_type = "pKd"
data_value = "below the threshold"

[[record]]
binder = "VKQYADVEGF [HNRNPK, P61978;P61978-2]"
value_type = "pKd"
data_value = "below the threshold"

[[record]]
binder = "TFSRRPKTRV [CD226, Q15762]"
value_type = "pKd"
data_value = "below the threshold"

[[record]]
binder = "FLVTEFNVML [DFNB31, Q9P202]"
value_type = "pKd"
data_value = 3.66


For each of the binders below, note its pKd.
1. FVFESRKEIL [TBPL1, P62380]
2. KSRPENGTVC [TMEM178B, H3BS89]

["below the threshold", "below the threshold"]

Data provenance is paper PMC9482650.
